experiment: qHTS Assay for Enhancers of SMN2 Splice Variant Expression; details: HEK293 SMN2-luciferase splicing reporter, luminescence, 30-36 h; series mostly up to 46.1 µM; further: nearly all actives have a fitted effect of over 55% in size
Hit rate of the full screen: of about 210,000 compounds, about 5,900 (2.8%) were called active. Roughly 5% stayed inconclusive and do not appear here. The call rests on the fitted dose curve; in most records, active means well fitted activation curve with a large enough effect; inconclusive means small, poorly fitted or top-dose-only effect; inactive means no such curve, though single readings can be large or run the other way. For the sample, actives were picked, then their nearest neighbours and some compounds at random.
Hi! Could you answer with just one of these? active, inactive

CC(=O)NCCc1nc2cc(NC(=O)c3ccccc3)ccc2n1C: active
COc1cccc(C(=O)N(Cc2cccc(Cl)c2)Cc2ccco2)c1: inactive
O=C(Nc1cc(N2CCOCC2)ncn1)NC1(C(F)(F)F)Oc2ccc(Cl)cc2O1 (stereo unspecified): active
CCOC(=O)c1c(C)[nH]c(C(=O)NCc2ccccc2OC)c1C: active
COc1cccc(-c2nc(S(=O)(=O)c3ccc(C)cc3)c(NCc3ccccc3)o2)c1: inactive
O=C(CCS(=O)(=O)c1cccc2nsnc12)N1CCN(c2ccccc2F)CC1: inactive

[Q] Tell me the recorded outcome of this test for COc1ccc(-n2c(C)cc(C(=O)CSc3nnc(-c4cccs4)o3)c2C)cc1 .
[A] inactive

[Q] Next: O=C(c1cccc2ccccc12)N1CCN(c2ccccc2F)CC1
[A] inactive

[Q] Next: COc1cccc(-c2nc3cc(C)ccc3o2)c1
[A] active

[Q] Next: COc1ccc(CNc2nc(-c3ccc(Cl)cc3)nn2C(=O)c2ccccc2)cc1
[A] inactive

[Q] Next: Cc1cccc(N(CC(=O)Nc2ccc(-c3nc4ccc(C)cc4s3)cc2)S(C)(=O)=O)c1
[A] inactive

[Q] Next: CCOC(=O)c1ccc(NC2=CC(c3ccc(OCC)cc3)N(c3ccc(C(=O)OCC)cc3)C2=O)cc1 (stereo unspecified)
[A] inactive

[Q] Next: O=c1oc(-c2ccco2)nc2sc3c(c12)CCCCC3
[A] active

[Q] Next: O=C(COc1ccc(Cl)cc1)Nc1ccc(-c2nc3cc(Cl)ccc3o2)c(O)c1
[A] inactive
